- Test system: B-16 melanoma cells
- Method Description: Cell-survival rate (cytotoxicity) in B-16 melanoma cell culture
- Format: cell-based
- Measurement Setup: mouse, 50 ppm
For each of the compounds below, state its Cell-Survival Rate.
Numbers only, in %.

Need Cell-Survival Rate for each of these compounds.
1. C=C(C)[C@@H]1CC[C@]2(C(=O)O)CC[C@]3(C)[C@H](CC[C@@H]4[C@@]5(C)CC[C@H](O)C(C)(C)[C@@H]5CC[C@]43C)[C@@H]12 [Betulinic acid, betulinic acid]
2. OC[C@H]1O[C@@H](Oc2ccc(O)cc2)[C@H](O)[C@@H](O)[C@@H]1O [Arbutin, reference compound]
3. C[C@H]1[C@H](C)CC[C@]2(CO)CC[C@]3(C)C(=CC[C@@H]4[C@@]5(C)CC[C@H](O)C(C)(C)[C@@H]5CC[C@]43C)[C@H]12 [Uvaol, uvaol]

Result block:
69
86
82

Need Cell-Survival Rate for each of these compounds.
1. CC1(C)CC[C@]2(CO)CC[C@]3(C)C(=CC[C@@H]4[C@@]5(C)CC[C@H](O)C(C)(C)[C@@H]5CC[C@]43C)[C@@H]2C1 [Erythrodiol, erythrodiol]
2. O=c1cc(CO)occ1O [Kojic Acid, reference compound]

Result block:
97
100
